Listed here: items and their measured MIC.
System: Candida albicans
Assay: Antifungal activity against Candida albicans ATCC 10231 after 48 hrs by CLSI M27-A2 method
Format: functional
Details: ATCC 10231, 48 h
Only the number, expressed in µg/mL, is required.

Use the examples below as a reference point.
compound: O=C1C=CC(=O)N1CCCCc1ccccc1
study target: Candida albicans
experimental value: 3.9
--
compound: O=C1C=CC(=O)N1c1ccccc1
study target: Candida albicans
experimental value: 3.9
--
compound: O=C1C=CC(=O)N1CCCc1ccccc1
study target: Candida albicans
experimental value: 3.9
--
compound: O=C1C=CC(=O)N1CCc1ccccc1
study target: Candida albicans
experimental value: 3.9
--
compound: C[C@@H]1[C@H](O)[C@@H](C)/C=C/C=C/C=C/C=C/C=C/C=C/C=C/[C@H](O[C@@H]2O[C@H](C)[C@@H](O)[C@H](N)[C@@H]2O)C[C@@H]2O[C@](O)(C[C@@H](O)C[C@@H](O)[C@H](O)CC[C@@H](O)C[C@@H](O)CC(=O)O[C@H]1C)C[C@H](O)[C@H]2C(=O)O [AMPHOTERICIN B]
study target: Candida albicans
experimental value: 1
--
compound: CC(=O)N1CCN(c2ccc(OCC3COC(Cn4ccnc4)(c4ccc(Cl)cc4Cl)O3)cc2)CC1 (configuration not stated) [KETOCONAZOLE]
study target: Candida albicans
experimental value: 0.5

Next item in the queue.
q: Please provide the recorded MIC for `O=C1C=CC(=O)N1Cc1ccccc1` , tested on Candida albicans.
a: 3.9

---

System: Candida albicans
Experiment: Antifungal activity against Candida albicans ATCC 10231 preincubated for 7 days analysed after 24 hrs by CLSI M27-A2 method
Type: functional
Listed here: items and their measured MIC.
Only the number, expressed in mg/L, is required.

smiles notation: O=C1C=CC(=O)N1CCCc1ccccc1
measured attribute: MIC
experimental value: 1000
//
smiles notation: O=C1C=CC(=O)N1CCc1ccccc1
measured attribute: MIC
experimental value: 500
//
smiles notation: O=C1C=CC(=O)N1Cc1ccccc1
measured attribute: MIC
experimental value: 500
//
smiles notation: O=C1C=CC(=O)N1c1ccccc1
measured attribute: MIC
experimental value: 500

q: Returns the measured MIC for the input compound. Input: `O=C1C=CC(=O)N1CCCCc1ccccc1`
a: 1000

---

Listed here: items and their measured MIC.
Tested on: Candida albicans
Test: Antifungal activity against Candida albicans C 128-2000 after 48 hrs by CLSI M27-A2 method
Format: functional
Only the number, expressed in µg/mL, is required.

smiles notation: C[C@@H]1[C@H](O)[C@@H](C)/C=C/C=C/C=C/C=C/C=C/C=C/C=C/[C@H](O[C@@H]2O[C@H](C)[C@@H](O)[C@H](N)[C@@H]2O)C[C@@H]2O[C@](O)(C[C@@H](O)C[C@@H](O)[C@H](O)CC[C@@H](O)C[C@@H](O)CC(=O)O[C@H]1C)C[C@H](O)[C@H]2C(=O)O
measured attribute: MIC
experimental value: 1.56

Next item in the queue.
q: Returns the measured MIC for the input compound. Input: `O=C1C=CC(=O)N1c1ccccc1`
a: 0.97

---

Listed here: items and their measured MIC.
Test system: Candida albicans
Experiment: Antifungal activity against Candida albicans ATCC 10231 pre-incubated for 2 days analysed after 24 hrs by CLSI M27-A2 method
Assay type: functional

Use the examples below as a reference point.
smiles notation: O=C1C=CC(=O)N1CCc1ccccc1
MIC: 7.8 mg/L
//
smiles notation: O=C1C=CC(=O)N1Cc1ccccc1
MIC: 7.8 mg/L
//
smiles notation: O=C1C=CC(=O)N1c1ccccc1
MIC: 3.9 mg/L
//
smiles notation: O=C1C=CC(=O)N1CCCCc1ccccc1
MIC: 3.9 mg/L

q: Returns the measured MIC for the input compound. Input: `O=C1C=CC(=O)N1CCCc1ccccc1`
a: 3.9 mg/L
